Listed below: normalized growth values for each entry.
Experiment summary: chemical genetic growth profiling, strain panel (AID 1159580);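 note: tested at 20 µM; growth read once vehicle control cultures reached saturation at 30 °C; 1 = growth at the plate median or of vehicle wells; lower values mean less growth of the strain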
Assay setup: S. cerevisiae deletion strains, growth OD, locus YEL061C, strain CIN8, hits give low values
The campaign covered roughly 5,500 compounds. About 2,000 (36%) were called active. Not shown: some 18% with an inconclusive outcome. Some of the results follow.
Lab note: jot the number down without any unit.

Solved entries:
Cc1ccc(Cl)cc1NC(=S)N(CCC#N)/N=C\c1ccc2c(c1)OCO2; 1
CC[C@H]1CN2CCC1C[C@@H]2[C@@H](O)c1ccnc2ccc(OC)cc12 (stereo partly drawn); 1.01
O=C1CC(=O)CC(c2ccc(Cl)c(Cl)c2)C1; 0.978

Value of normalized growth reported for the molecule C[C@]12CC[C@H](O)C[C@H]1CCC1C2CC[C@]2(C)[C@@H](C3=CC(=O)OC3)[C@@H](O)C[C@]12O (stereo partly drawn) is 1.02

Value of normalized growth reported for the molecule C[C@H]1O[C@@H](O[C@H]2[C@@H](O)C[C@H](O[C@H]3[C@@H](O)C[C@H](O[C@H]4CC[C@]5(C)C6CC[C@]7(C)[C@@H](C8=CC(=O)OC8)CC[C@]7(O)C6CC[C@@H]5C4)O[C@@H]3C)O[C@@H]2C)C[C@H](O)[C@@H]1O (stereo partly drawn) is 0.999

Value of normalized growth reported for the molecule Cc1ccc(C(C)C)c(O)c1C(=O)O is 0.981

Value of normalized growth reported for the molecule O=C(O/N=C1/CCCc2[nH]c3ccccc3c21)c1ccc(Cl)cc1Cl is 0.917

Value of normalized growth reported for the molecule C[C@@H]1O[C@@H](O[C@H]2CC[C@]3(C=O)C4CC[C@]5(C)[C@@H](C6=CC(=O)OC6)CC[C@]5(O)C4CC[C@]3(O)C2)[C@H](O)[C@H](O)[C@H]1O (stereo partly drawn) is 0.996

* * *

Experiment summary: chemical genetic growth profiling, strain panel (AID 1159580);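 note: tested at 20 µM; growth read once vehicle control cultures reached saturation at 30 °C; 1 = growth at the plate median or of vehicle wells; lower values mean less growth of the strain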
Assay setup: S. cerevisiae deletion strains, growth OD, locus YJL154C, strain vps35, hits give low values
Screen size: about 5,500 compounds; about 2,000 (36%) were called active. Another 18% or so got no clear call; they are omitted. This is one part of the list.
Listed below: normalized growth values for each entry.
Lab note: jot the number down without any unit.

Solved entries:
C[C@@H]1O[C@@H](O[C@H]2CC[C@]3(C=O)C4CC[C@]5(C)[C@@H](C6=CC(=O)OC6)CC[C@]5(O)C4CC[C@]3(O)C2)[C@H](O)[C@H](O)[C@H]1O (some centres undefined); 1.01
O=C1CC2(CCCC2)CC(=O)N1CCCCN1CCN(c2ncccn2)CC1; 1
C[C@]12CCC3C(CC[C@]4(O)C[C@@H](O)CC[C@]34C=O)[C@@]1(O)CCC2C1=CC(=O)OC1 (some centres undefined); 0.984
CCn1nc(C(=O)O)c(=O)c2cc3c(cc21)OCO3; 1.02
CCC(=O)OCC(=O)C1(OC(=O)CC)C(C)CC2C3C(Cl)CC4=CC(=O)C=CC4(C)C3C(O)CC21C (centres undefined); 1.03
CC1(C)C(O)CC(=O)C2(C)C1CC(O)C1(C)C2CCC2(C)C(c3ccoc3)OC(=O)C3OC321 (centres undefined); 1
Cc1ccc(-c2nc3ccc(C)cn3c2CC(=O)N(C)C)cc1; 1.02
O=C(CCCN1CCN(c2ccccn2)CC1)c1ccc(F)cc1; 0.993
CCCCCC(O)C1C(=O)OC(C)C(O)/C=C/C=C/C=C/C=C/C=C(\C)C(O)CC(O)CC(O)CC(O)CC(O)CC(O)CC1O (centres undefined); 0.985
CC(C)(C)NCC(O)COc1cccc2c1CCCC2=O (centres undefined); 0.981

Value of normalized growth reported for the compound CCC(=O)OCC(=O)C1(OC(=O)CC)C(C)CC2C3CCC4=CC(=O)C=CC4(C)C3(Cl)C(O)CC21C (centres undefined) is 0.965

Value of normalized growth reported for the compound CC12CCC(=O)C=C1CCc1ccccc12 (centres undefined) is 0.972

Value of normalized growth reported for the compound Nc1nc(/C(=C/CC(=O)O)C(=O)N[C@@H]2C(=O)N3C(C(=O)O)=CCS[C@H]23)cs1 is 1.01

Value of normalized growth reported for the compound O=C(O)C1=CC(=C(c2ccc(O)c(C(=O)O)c2)c2ccc(O)c(C(=O)O)c2)C=CC1=O is 0.982

Value of normalized growth reported for the compound COC1CC(OC2CCC3(C)C(CCC4C3CCC3(C)C(C5=CC(=O)OC5)C(OC(C)=O)CC43O)C2)OC(C)C1O (centres undefined) is 1.02

Value of normalized growth reported for the compound C/C=C(\C)C(=O)O[C@@H]1c2c(ccc3ccc(=O)oc23)OC(C)(C)[C@@H]1OC(C)=O is 1.01

Value of normalized growth reported for the compound Cc1cc(N)c2ccccc2[n+]1CCCCCCCCCC[n+]1c(C)cc(N)c2ccccc21 is 0.0637
